src = patent US20240101528A1

- test_details: Pharmacokinetic parameters following intravenous administration in rats
- Assay type: in vivo, male Wistar rats
- test_settings: male, Wistar, rat, plasma, intravenous administration, read-out: CLplasma (converted)
reported_metric: clearance (mL/min/kg)
Report as a plain number; the unit mL/min/kg is understood.

[Q] Could you please provide reported clearance for O=C(O)c1cnn(C2CCCN(c3cc(Cl)ccc3-c3ccc(N4CCN(CC(F)F)CC4)cc3)C2)c1C(F)F (single isomer, unassigned; enantiomer 2) ? Thanks!
[A] 5.33

---

- test_target: recombinant guanylate cyclase reporter cell line (Rattus norvegicus)
- Sequence (P20595 1-619): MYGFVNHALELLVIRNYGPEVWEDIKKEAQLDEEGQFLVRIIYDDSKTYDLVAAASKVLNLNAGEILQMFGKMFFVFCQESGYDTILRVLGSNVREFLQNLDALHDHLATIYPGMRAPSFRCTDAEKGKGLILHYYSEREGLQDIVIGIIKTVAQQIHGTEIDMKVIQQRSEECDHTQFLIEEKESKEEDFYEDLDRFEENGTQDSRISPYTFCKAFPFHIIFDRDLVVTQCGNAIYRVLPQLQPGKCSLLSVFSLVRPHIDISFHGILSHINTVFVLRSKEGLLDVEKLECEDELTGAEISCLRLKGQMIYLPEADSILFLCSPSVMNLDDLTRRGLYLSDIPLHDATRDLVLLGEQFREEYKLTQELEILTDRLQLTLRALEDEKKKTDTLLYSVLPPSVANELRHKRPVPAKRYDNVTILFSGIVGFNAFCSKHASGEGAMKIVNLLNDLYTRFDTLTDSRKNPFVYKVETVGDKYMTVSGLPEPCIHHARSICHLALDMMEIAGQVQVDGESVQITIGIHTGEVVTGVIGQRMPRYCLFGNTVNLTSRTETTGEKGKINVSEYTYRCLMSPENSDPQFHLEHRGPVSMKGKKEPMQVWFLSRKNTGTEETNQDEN
- Sequence (P19686 1-690 partner): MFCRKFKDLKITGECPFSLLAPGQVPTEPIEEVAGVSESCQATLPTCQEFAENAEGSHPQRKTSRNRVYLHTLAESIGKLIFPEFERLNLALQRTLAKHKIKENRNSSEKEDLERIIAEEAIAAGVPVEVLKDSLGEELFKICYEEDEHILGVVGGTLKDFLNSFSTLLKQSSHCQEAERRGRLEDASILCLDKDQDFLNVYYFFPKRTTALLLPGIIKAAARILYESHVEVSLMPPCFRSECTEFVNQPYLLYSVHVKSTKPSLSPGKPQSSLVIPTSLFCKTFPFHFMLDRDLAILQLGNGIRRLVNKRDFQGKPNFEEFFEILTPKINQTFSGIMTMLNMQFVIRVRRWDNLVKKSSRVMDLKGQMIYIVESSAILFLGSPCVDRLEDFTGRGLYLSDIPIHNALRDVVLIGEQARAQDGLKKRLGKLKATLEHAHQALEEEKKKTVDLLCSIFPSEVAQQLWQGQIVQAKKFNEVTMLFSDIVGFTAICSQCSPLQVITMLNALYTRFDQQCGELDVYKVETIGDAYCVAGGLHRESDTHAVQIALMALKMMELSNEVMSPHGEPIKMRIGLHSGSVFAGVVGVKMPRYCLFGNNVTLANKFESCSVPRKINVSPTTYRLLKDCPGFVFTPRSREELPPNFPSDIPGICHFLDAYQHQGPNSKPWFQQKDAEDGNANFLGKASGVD
- test_details: Effect on a recombinant guanylate cyclase reporter cell line
- test_settings: half maximal effective concentration
# EC50 per entry
Report as a plain number; the unit nM is understood.

Use these answered entries as a reference point.
CC(C)CN1CCN(c2ncc(-c3ccc(Cl)cc3N3CCCC(n4ncc(C(=O)O)c4C(F)F)C3)cn2)CC1 (single isomer, unassigned; enantiomer 2): 21.5
O=C(O)c1cnn(C2CCCN(c3cc(Cl)ccc3-c3ccc(N4CCN(CCC(F)(F)F)CC4)cc3)C2)c1C(F)F (single isomer, unassigned; enantiomer 2): 1
O=C(O)c1cnn(C2CCCN(c3cc(Cl)ccc3-c3ccc(N4CCN(C[C@@H]5C[C@@H]5F)CC4)cc3)C2)c1C(F)F (single isomer, unassigned; stereoisomer 2): 4.2

[Q] Could you please provide reported EC50 for CCCN1CCN(c2ccc(-c3ccc(Cl)cc3N3CCCC(n4ncc(C(=O)O)c4C(F)F)C3)cn2)CC1 (single isomer, unassigned; enantiomer 2) ? Thanks!
[A] 28.5

[Q] Could you please provide reported EC50 for NC(=O)CCN1CCN(c2ccc(-c3ccc(Cl)cc3N3CCCC(n4ncc(C(=O)O)c4C(F)F)C3)cc2)CC1 (single isomer, unassigned; enantiomer 2) ? Thanks!
[A] 18

[Q] Could you please provide reported EC50 for CC(C)(C)CN1CCN(c2ccc(-c3ccc(Cl)cc3N3CCCC(n4ncc(C(=O)O)c4C(F)F)C3)cc2)CC1 (single isomer, unassigned; enantiomer 1) [Example 12] ? Thanks!
[A] 61.5

[Q] Could you please provide reported EC50 for O=C(O)c1cnn(C2CCCN(c3cc(Cl)ccc3-c3ccc(N4CCN(CC5CC5F)CC4)cc3)C2)c1C(F)F (mixture of isomers) [Example 32] ? Thanks!
[A] 2.7

[Q] Could you please provide reported EC50 for CC(C)CN1CCN(c2ccc(-c3ccc(Cl)cc3N3CC(n4ncc(C(=O)O)c4C(F)F)CC(F)(F)C3)cc2)CC1 (single isomer, unassigned; enantiomer 2) [Example 55] ? Thanks!
[A] 56.5

[Q] Could you please provide reported EC50 for O=C(O)c1cnn(C2CCCN(c3cc(Cl)ccc3-c3ccc(N4CCN(CC5CC5(F)F)CC4)cc3)C2)c1C(F)F (mixture of isomers) [Example 27] ? Thanks!
[A] 2.8

[Q] Could you please provide reported EC50 for CC(C)CN1CCN(c2ccc(-c3ccc(Cl)cc3N3CCCC(n4ncc(C(=O)O)c4C(F)F)C3)cn2)CC1 (single isomer, unassigned; enantiomer 2) ? Thanks!
[A] 7.5
